# Experimental Target: T1R1/T1R3 receptor (Felis catus, UniProt E3UMS2)
# Protocol Details: cell-based
# Format: cell-based
# Run Conditions: EC50 + IMP, + IMP (0.2 mM); Table 17
pEC50: −log10 of the molar value.
# label = 1 if pEC50 >= 3 else 0

| Compound | Assigned Label |
| --- | --- |
| COc1ccc(C(=O)NC(C)c2ccccc2)cc1C (stereo not drawn) | 0 |
| CCC(CC)NC(=O)c1ccc2c(c1)OCCO2 | 1 |
| CCCC(C)NC(=O)c1ccc(OC)c(C)c1 (stereo not drawn) | 1 |
| CCC(CC)NC(=O)c1ccc(C)c(C)c1 [3,4-dimethyl-N-(pentan-3-yl)benzamide] | 0 |
| COc1ccc(/C=C/C(=O)NC2CCCCC2C)cc1 (stereo not drawn) | 0 |
| CSc1ccc(-c2nnn(Cc3ccccn3)n2)cc1 | 1 |

###

# Experimental Target: T1R1/T1R3 receptor (Felis catus)
# Protocol Details: cell-based
# Assay type: cell-based
# Run Conditions: EC50 +Alanine + IMP, +Alanine (20 mM) + IMP (0.2 mM); Table 18
Quantity: log10(EC50) (log10 of the value in µM)

| Molecule | Experimental Target | Result Number |
| --- | --- | --- |
| COc1cc(C(=O)NC(C(N)=O)c2ccccc2)cc(Cl)c1OC (centres unmarked) | T1R1/T1R3 receptor (Felis catus) | 2.88 |
| CC1CCCC(NC(=O)c2ccc3c(c2)OCO3)C1C (centres unmarked) | T1R1/T1R3 receptor (Felis catus) | 2.78 |
| CCC(CC)NC(=O)c1ccc(C)c(C)c1 [3,4-dimethyl-N-(pentan-3-yl)benzamide] | T1R1/T1R3 receptor (Felis catus) | 3.23 |
| CCCC(CCC)C(=O)Nc1ccc2c(c1)OCO2 | T1R1/T1R3 receptor (Felis catus) | 1.95 |
| COc1ccc(C(=O)NC(C)c2ccccc2)cc1C (centres unmarked) | T1R1/T1R3 receptor (Felis catus) | 3.08 |
| CCCC(C)NC(=O)c1ccc(OC)c(C)c1 (centres unmarked) | T1R1/T1R3 receptor (Felis catus) | 1.48 |

###

# Experimental Target: T1R1/T1R3 receptor (Felis catus, UniProt E3UMS2)
# Protocol Details: cell-based
# Run Conditions: read-out: T1R1/T1R3 EC50 +20 mM L-alanine + 0.2 mM IMP
# Excerpt: HEK293 cells that stably express T1R3 and inducibly express T1R1 were exposed to nucleotide derivatives alone to activate the umami receptor. Activation of the T1R1/T1R3 receptor was detected by a change in intracellular calcium levels using a calcium sensitive fluorescent dye. Cells that express T1R3 but not T1R1 were used as a control. A FLIPR® Tetra or a FlexStation® 3 was used for data capture. […]
pEC50: −log10 of the molar value.

| Molecular String | pEC50 |
| --- | --- |
| O=P(O)(O)OP(=O)(O)OP(=O)(O)OC[C@H]1O[C@@H](n2cnc3c(Cl)ncnc32)[C@H](O)[C@@H]1O | < 4.52 |

###

# Experimental Target: T1R1/T1R3 receptor (Felis catus, UniProt E3UMS2)
# Protocol Details: cell-based

| Compound | Experimental Target | Reading Unit | Max resp % of IMP, +Alanine (20 mM) |
| --- | --- | --- | --- |
| CCCCc1nn(CC(=O)N2CCCC2)c(=O)n1Cc1ccccc1 | T1R1/T1R3 receptor (Felis catus, UniProt E3UMS2) | % | 129.9 |
| COC(=O)[C@H](Cc1ccccc1)NCc1ccccc1.Cl | T1R1/T1R3 receptor (Felis catus, UniProt E3UMS2) | % | 273.4 |
| O=C(NCCc1ccccc1)c1cccnc1 [N-phenethylnicotinamide] | T1R1/T1R3 receptor (Felis catus, UniProt E3UMS2) | % | 83.6 |
| O=C(NCCCCNC(=O)c1cccnc1)c1cccnc1 [N,N′-(butane-1,4-diyl)dinicotinamide] | T1R1/T1R3 receptor (Felis catus, UniProt E3UMS2) | % | 9.5 |
| O=C1CC(=O)N(Cc2ccccc2)C(=O)N1Cc1ccccc1 | T1R1/T1R3 receptor (Felis catus, UniProt E3UMS2) | % | 42.7 |
| CC(C)CC(NC(=O)c1ccccc1)C(N)=O (racemic) | T1R1/T1R3 receptor (Felis catus, UniProt E3UMS2) | % | 125.5 |
| O=P(O)(O)OP(=O)(O)OP(=O)(O)OC[C@H]1O[C@@H](n2cnc3c(Cl)ncnc32)[C@H](O)[C@@H]1O | T1R1/T1R3 receptor (Felis catus, UniProt E3UMS2) | % | 50.4 |

###

# Experimental Target: T1R1/T1R3 receptor (Felis catus, UniProt E3UMS2)
# Protocol Details: cell-based
# Run Conditions: alone in buffer; read-out: T1R1/T1R3 EC50 alone in buffer
As shown below, each of these compounds has a reported EC50 value.

| Compound | Reading Unit | Comparison Sign | EC50 |
| --- | --- | --- | --- |
| O=C(NCCc1ccccc1)c1ccc2c(c1)OCO2 | µM | = | 120 |
| O=P(O)(O)OP(=O)(O)OP(=O)(O)OC[C@H]1O[C@@H](n2cnc3c(Cl)ncnc32)[C@H](O)[C@@H]1O | µM | > | 30 |
| Nc1ccccc1C(=O)NCCc1ccccc1 [2-amino-N-phenethylbenzamide] | µM | = | 420 |
| O=C(O)C1CCCCC1C(=O)Nc1cc(Cl)cc(Cl)c1 (centres unmarked) | µM | = | 370 |
| O=C(NCCc1c[nH]c2ccccc12)c1cccnc1 [N-(2-(1H-indol-3-yl)ethyl)nicotinamide, N-(2-(1H-Indol-3-yl)ethyl)nicotinamide] | µM | = | 150 |
| O=C(NCCc1ccccc1)c1cccnc1 [N-phenethylnicotinamide] | µM | = | 370 |
| O=C(NCCc1ccccc1)c1ccccc1 [N-phenethylbenzamide] | µM | = | 330 |
| O=C1CC(=O)N(Cc2ccccc2)C(=O)N1Cc1ccccc1 | µM | = | 260 |

###

# Experimental Target: T1R1/T1R3 receptor (Felis catus)
# Protocol Details: Example 8: agonist screening of transmembrane compounds on T1R1/T1R3 in HEK293 cells
# Assay type: cell-based, cat
# Run Conditions: transmembrane compound tested at 0.01, 0.1 and 1 mM; HEK293 cells expressing T1R1/T1R3; intracellular calcium

| Molecular String | T1R1/T1R3 agonist |
| --- | --- |
| CCCC(CCC)NC(=O)c1ccc2c(c1)OCO2 | Yes |
| O=C(CN1C(=O)C(=O)N(Cc2ccccc2)C1=O)c1ccc2c(c1)CCC2 | No |
| O=C(CN1C(=O)C(=O)N(Cc2ccccc2)C1=O)c1ccccc1 | No |
| N#Cc1cccc(NC(=O)CN2C(=O)C(=O)N(Cc3ccccc3)C2=O)c1 | No |
| O=C(CN1C(=O)C(=O)N(CCc2cccs2)C1=O)c1ccccc1 | No |

###

# Experimental Target: T1R1/T1R3 receptor (Felis catus)
# Protocol Details: cell-based
# Format: cell-based
# Run Conditions: + IMP (0.2 mM); Table 17
Quantity: Max resp % of ALa + IMP

| Compound | Quantity | Result |
| --- | --- | --- |
| CCC(CC)NC(=O)c1ccc(OC)c(OC)c1 [3,4-dimethoxy-N-(pentan-3-yl)benzamide] | Max resp % of ALa + IMP | 81.0 % of ALa |
| COC(=O)C(NC(=O)/C=C/c1cccs1)C(C)C (stereo not shown) | Max resp % of ALa + IMP | 59.9 % of ALa |
| CCC(CC)NC(=O)c1ccc2c(c1)OCCO2 | Max resp % of ALa + IMP | 70.9 % of ALa |
| CCC(CC)NC(=O)c1ccc(Br)o1 | Max resp % of ALa + IMP | 149.6 % of ALa |
| O=C(CN1C(=O)C(=O)N(Cc2ccccc2)C1=O)c1ccccc1 | Max resp % of ALa + IMP | 135.7 % of ALa |
| CCCC(CCC)C(=O)Nc1ccc2c(c1)OCO2 | Max resp % of ALa + IMP | 108.0 % of ALa |
| COc1cc(C(=O)NC(C(N)=O)c2ccccc2)cc(Cl)c1OC (stereo not shown) | Max resp % of ALa + IMP | 49.4 % of ALa |
| COc1ccc(C(=O)NC(C)c2ccccc2)cc1C (stereo not shown) | Max resp % of ALa + IMP | 95.6 % of ALa |
| CCC(CC)NC(=O)c1ccc(C)c(C)c1 [3,4-dimethyl-N-(pentan-3-yl)benzamide] | Max resp % of ALa + IMP | 125.7 % of ALa |
| CCC(CC)NC(=O)/C=C/c1ccc(OC)cc1 | Max resp % of ALa + IMP | 171.7 % of ALa |
| O=C(Nc1ccccc1Br)N[C@@H]1c2ccccc2C[C@@H]1O (stereo in doubt) | Max resp % of ALa + IMP | 44.9 % of ALa |
| COc1ccc(/C=C/C(=O)NC2CCCCC2C)cc1 (stereo not shown) | Max resp % of ALa + IMP | 144.0 % of ALa |
| CSc1ccc(-c2nnn(Cc3ccccn3)n2)cc1 | Max resp % of ALa + IMP | 80.7 % of ALa |
| CC1CCCC(NC(=O)c2ccc3c(c2)OCO3)C1C (stereo not shown) | Max resp % of ALa + IMP | 95.4 % of ALa |
| CCCC(C)NC(=O)c1ccc(OC)c(C)c1 (stereo not shown) | Max resp % of ALa + IMP | 128.9 % of ALa |
| O=C(NCCc1ccccc1)C(=O)NCc1cccnc1 | Max resp % of ALa + IMP | 61.9 % of ALa |
